The origin of these recorded values is ChEMBL document CHEMBL5390277.

# Tested system: C-X-C chemokine receptor type 4 (Homo sapiens, UniProt P61073)
# Sequence (P61073 whole entry): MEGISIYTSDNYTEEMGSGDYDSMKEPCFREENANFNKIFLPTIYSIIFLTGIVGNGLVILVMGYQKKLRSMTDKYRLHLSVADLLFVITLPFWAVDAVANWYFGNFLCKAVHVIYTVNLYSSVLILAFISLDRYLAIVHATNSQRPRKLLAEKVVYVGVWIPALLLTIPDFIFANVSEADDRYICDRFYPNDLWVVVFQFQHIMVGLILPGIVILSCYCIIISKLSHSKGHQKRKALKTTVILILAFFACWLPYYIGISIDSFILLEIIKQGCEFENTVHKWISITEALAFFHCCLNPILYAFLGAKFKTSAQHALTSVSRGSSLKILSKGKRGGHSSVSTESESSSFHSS
# Method notes: Displacement of 12G5 mAb from CXCR4 in human SUP-T1 cells incubated for 2 hrs by flow cytometry analysis
# Type: cell-based
Square brackets hold non-standard residues; d marks the D form. Peptide text beside a SMILES is read from it.
Consider the following compounds; for each one, report its IC50.

Requested field: IC50. Item: CC[C@H](C)[C@H](N)C(=O)N[C@H](CC(C)C)C(=O)N[C@@H](CCCNC(=N)N)C(=O)N[C@@H](Cc1c[nH]c2ccccc12)C(=O)N[C@@H](CO)C(=O)N[C@@H](CCCNC(=N)N)C(=O)N[C@@H](CCCCN)C(=O)N[C@@H](CC(C)C)C(=O)N1CCC[C@H]1C(=O)N[C@@H](CS)C(=O)N[C@H](C(=O)N[C@@H](CO)C(=O)O)C(C)C
1730 nM

For CC[C@H](C)[C@H](N)C(=O)N[C@H](C(=O)N[C@@H](CCCNC(=N)N)C(=O)N[C@@H](Cc1c[nH]c2ccccc12)C(=O)N[C@@H](CO)C(=O)N[C@@H](CCCCN)C(=O)N[C@@H](CCCCN)C(=O)N[C@H](C(=O)N1CCC[C@H]1C(=O)N[C@@H](CS)C(=O)N[C@H](C(=O)N[C@@H](CO)C(=O)O)C(C)C)C(C)C)C(C)C (H-IVRWSKKVPCVS-OH) , what is its reported IC50?
345 nM

Entry CC[C@@H](C)[C@@H](N)C(=O)N[C@@H](CC(C)C)C(=O)N[C@@H](CCCNC(=N)N)C(=O)N[C@@H](Cc1c[nH]c2ccccc12)C(=O)N[C@@H](CO)C(=O)N[C@@H](CCCNC(=N)N)C(=O)N[C@@H](CCCCN)C(=O)N[C@@H](CC(C)C)C(=O)N1CCC[C@H]1C(N)=O (H-[dI]LRWSRKLP-NH2) : reported IC50 = ?
453 nM
